# protocol: in vivo
# experimental-conditions: male, SD, rat, plasma, po, 50 mg/kg, AUC0-inf of gefitinib, first gefitinib administration
observable: AUC(0-inf)
Answer as a quantity: numeral, then unit.

Request: Returns the measured AUC(0-inf) for the input compound. Input: COc1cc2ncnc(Nc3ccc(F)c(Cl)c3)c2cc1OCCCN1CCOCC1 [Gefitinib]
Result: 20200 ng·h/mL

====

# protocol: in vivo
# experimental-conditions: male, SD, rat, plasma, po, 50 mg/kg, Blood tamoxifen AUC0-inf, 8th administration
Where a name gives a salt, the structure may show the parent alone.
observable: AUC(0-inf)

Request: Which AUC(0-inf) value belongs to CC/C(=C(\c1ccccc1)c1ccc(OCCN(C)C)cc1)c1ccccc1 [Tamoxifen, Tamoxifen citrate] ?
Result: 21500 ng·h/mL
